STUDY_TARGET: human GLP-1 receptor (human, UniProt P43220 24-463)
ASSAY_PROCEDURE: cell-based or functional assay
Labelling field: enter Condition met if recorded cAMP Rel. A (%) against human GLP-1 (7-37), human GLP-1 R cells is less than 400%. Enter Condition not met if it equals or exceeds that cut-off.

Take a look at these entries with their results.
[[record]]
binder = "YXQGTXTSDYSIXLDKKAQXAFIEFLLESHPSSXHPPXS (Aib at 2; αMeF at 6; αMeL at 13; Lys 17 side chain AEEAc-AEEAc-γGlu-CO(CH2)18COOH; Aib at 20; Aib at 34; Ac3c at 38; C-terminal amide (NH2)) [Compound 33]"
class_assignment = "Condition met"

[[record]]
binder = "YXQGTXTSDYSIXLDKKAQXAFIEFLLEXHPSSGAPPXS (Aib at 2; αMeF(2F) at 6; αMeL at 13; Lys 17 side chain AEEAc-AEEAc-γGlu-CO(CH2)18COOH; Aib at 20; Aib at 29; Ac3c at 38; C-terminal amide (NH2)) [Compound 31]"
class_assignment = "Condition met"

[[record]]
binder = "YXHGTXTSDYSIXLDKKAQXAFIEYLLEXHPSSGQPPPS (Aib at 2; αMeF(2F) at 6; αMeL at 13; Lys 17 side chain AEEAc-AEEAc-γGlu-CO(CH2)18COOH; Aib at 20; Aib at 29; C-terminal amide (NH2)) [Compound 6]"
class_assignment = "Condition met"

[[record]]
binder = "YXQGTXTSDYSIXLDKKAQXAFIEYLLESHPSSXHPPXS (Aib at 2; αMeF(2F) at 6; αMeL at 13; Lys 17 side chain AEEAc-AEEAc-γGlu-CO(CH2)18COOH; Aib at 20; Aib at 34; Ac3c at 38; C-terminal amide (NH2)) [Compound 43]"
class_assignment = "Condition not met"

[[record]]
binder = "YXQGTXTSDYSIFLDKKAQXAFIEYLLEGGPSSGAPPXS (Aib at 2; αMeF(2F) at 6; Lys 17 side chain AEEAc-AEEAc-γGlu-CO(CH2)18COOH; Aib at 20; Ac3c at 38; C-terminal amide (NH2)) [Compound 4]"
class_assignment = "Condition met"


Kindly consider the entry below.
Input: Consider the binder YXQGTXTSDYSIXLDKKAQXAFIEFLLESHPSSGAPPPS (Aib at 2; αMeF at 6; αMeL at 13; Lys 17 side chain AEEAc-AEEAc-γGlu-CO(CH2)18COOH; Aib at 20; C-terminal amide (NH2)) [Compound 26] . Is its cAMP Rel. A (%) against human GLP-1 (7-37), human GLP-1 R cells strictly less than 400%?
Output: Condition met
